src = patent US9789181B2

test_target: HLA DRB1 *0101 (Homo sapiens, UniProt P01903+P01911, A100R/D57E/F55L/F60I/F76Y/I96L/L162R/M171V/P40L/Q125E/R42F/V115G/Y59C)
experimental_details: IC50nM to purified HLA | DRB1 *0101
Where no end group is shown, it is not given here.
Note to self: IC50 under 5 nM means met, ties and anything higher get not met.

Examples from the recorded data:
{"columns": ["sequence_string", "class_label"],
 "data": [
  ["AAADFVAAYTLHAAA [SEQ ID NO: 42]", "met"],
  ["AAANFVAAWTLKAAA [SEQ ID NO: 50]", "met"],
  ["AAAHFVAAYTLKADA [SEQ ID NO: 32]", "not met"],
  ["AAAEFVAAWTLKAAA [SEQ ID NO: 45]", "met"],
  ["AAAEFVAAFTLHAAA [SEQ ID NO: 48]", "not met"]
]}

is_below(IC50, 5 nM) for AAADFVAAWTLKAAA [SEQ ID NO: 40] ?
not met

# check: IC50 < 5 nM for AAANFVAAYTLHAAA [SEQ ID NO: 52]
met

State whether 5 nM exceeds IC50 recorded for AAADFVAANTLHAAA [SEQ ID NO: 44] .
not met

Consider AAADFVAAFTLHAAA [SEQ ID NO: 43] . Does its IC50 lie strictly below 5 nM?
not met

---

Task for the reader: assign each of the following sequences its reported log10(IC50).
test_target: purified HLA DRB1 *1302 (Homo sapiens, UniProt P01903+P01911, A100E/A169T/K41T/L162R/M171V/P40S/Q125H/Q178H/Q39Y/Q99D/R42S/S66N/T262R/V115G/W38E/Y61H)
Sequence (P01903 26-254 limits assumed, other chains not shown): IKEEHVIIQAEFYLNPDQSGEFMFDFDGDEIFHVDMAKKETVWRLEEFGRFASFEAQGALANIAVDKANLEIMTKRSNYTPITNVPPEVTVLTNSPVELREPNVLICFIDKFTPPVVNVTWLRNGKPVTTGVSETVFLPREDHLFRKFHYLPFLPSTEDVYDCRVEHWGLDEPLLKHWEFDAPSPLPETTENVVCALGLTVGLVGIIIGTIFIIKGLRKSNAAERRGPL
experimental_details: IC50nM to purified HLA | DRB1 *1302
Where no end group is shown, it is not given here.
Annotation: log10 of IC50, µM basis.

{"columns": ["sequence_string", "measured_number"],
 "data": [
  ["AAAHFVAAYTLHAAA [SEQ ID NO: 27]", 0.12],
  ["AAAYFVAANTLHAAA [SEQ ID NO: 24]", -1.27],
  ["AAAKFVAAWTLHAAA [SEQ ID NO: 6]", -0.18],
  ["AAAWFVAAWTLHAAA [SEQ ID NO: 7]", 0.63]
]}

Below: the item to evaluate.
Reported log10(IC50) for AAAHFVAAWTLKAAA [SEQ ID NO: 25] : what is it?
0.18

---

test_target: purified HLA DRB1 *0404 (Homo sapiens, UniProt P01903+P01911, A100R/A169T/F76Y/I96L/K127E/L162R/M171V/N62H/P40V/Q125Y/R42H/S133A/S149N/S66Y/V209L/W38E)
experimental_details: IC50nM to purified HLA | DRB1 *0404
Where no end group is shown, it is not given here.
Provide the reported pIC50 of each item.
One number for each entry, as −log10 of the molar value.

{"columns": ["sequence_string", "assay_metric", "measured_number"],
 "data": [
  ["AAAFFVAANTLHAAA [SEQ ID NO: 15]", "pIC50", 8.39],
  ["AAAWFVAAYTLHAAA [SEQ ID NO: 8]", "pIC50", 8.49],
  ["AAAYFVAAYTLHAAA [SEQ ID NO: 22]", "pIC50", 8.72],
  ["AAAYFVAAFTLHAAA [SEQ ID NO: 23]", "pIC50", 9.17],
  ["AAAFFVAAYTLHAAA [SEQ ID NO: 13]", "pIC50", 8.64],
  ["AAAFFVAAWTLKAAA [SEQ ID NO: 11]", "pIC50", 8.14]
]}

Continue with the next sequence.
Fill in: pIC50 of AAAFFVAAYTLKADA [SEQ ID NO: 17] is ___
8.22

---

test_target: purified HLA DRB1 *0701 (Homo sapiens, UniProt P01903+P01911, A100R/A102G/A103Q/D57E/D86V/E43K/F76Y/K127E/L162R/M171V/P40G/Q125H/Q99D/R33Q/R42Y/R54Q/S133A/S66F/T210M/V115G/Y107V/Y59L/Y89S)
experimental_details: IC50nM to purified HLA | DRB1 *0701
Where no end group is shown, it is not given here.
assay_metric: IC50 (nM)
Answers are plain numbers, in nM.

For orientation, consider the following solved cases.
{"columns": ["sequence_string", "scale_unit", "IC50"],
 "data": [
  ["AAAYFVAAFTLHAAA [SEQ ID NO: 23]", "nM", 78],
  ["AAAHFVAAYTLHAAA [SEQ ID NO: 27]", "nM", 94],
  ["AAAWFVAAWTLHAAA [SEQ ID NO: 7]", "nM", 84],
  ["AAAWFVAAYTLHAAA [SEQ ID NO: 8]", "nM", 91],
  ["AAAYFVAAWTLHAAA [SEQ ID NO: 21]", "nM", 55],
  ["AAAHFVAAWTLHAAA [SEQ ID NO: 26]", "nM", 53],
  ["AAAFFVAAWTLKAAA [SEQ ID NO: 11]", "nM", 74],
  ["AAAKFVAAWTLHAAA [SEQ ID NO: 6]", "nM", 35]
]}

Provide reported IC50 for each item, in the same order as listed.
1. AAAYFVAAYTLHAAA [SEQ ID NO: 22]
2. AAAKFVAAWTLKAAA [SEQ ID NO: 4]
3. AAAFFVAAWTLKADA [SEQ ID NO: 16]

1. 65
2. 49
3. 91

Entry under review: AAAFFVAAFTLHAAA [SEQ ID NO: 14] . Reported IC50?
610

---

test_target: HLA DRB1 *1302 (Homo sapiens, UniProt P01903+P01911, A100E/A169T/K41T/L162R/M171V/P40S/Q125H/Q178H/Q39Y/Q99D/R42S/S66N/T262R/V115G/W38E/Y61H)
Sequence (P01903 26-254 limits assumed, other chains not shown): as above
experimental_details: IC50nM to purified HLA | DRB1 *1302
Where no end group is shown, it is not given here.
Lab note: anything with IC50 below 900 nM is marked 1; values at 900 nM or higher are marked 0.

// known answers, use as guide
{"columns": ["sequence_string", "class_label"],
 "data": [
  ["AAAEFVAAWTLHAAA [SEQ ID NO: 46]", 0],
  ["AAAHFVAAWTLKAEA [SEQ ID NO: 36]", 0],
  ["AAAEFVAAFTLHAAA [SEQ ID NO: 48]", 0],
  ["AAADFVAANTLHAAA [SEQ ID NO: 44]", 1],
  ["AAAKFVAAWTLKADA [SEQ ID NO: 30]", 1],
  ["AAAHFVAAFTLKADA [SEQ ID NO: 33]", 1]
]}

Moving on to another sequence below.
Regarding AAAHFVAAYTLKAEA [SEQ ID NO: 37] , kindly confirm whether its IC50 is beneath 900 nM.
0

---

test_target: HLA DRB4 *0101 (Homo sapiens, UniProt P01903+P13762, G164S)
Sequence (P01903 26-254 limits assumed): as the sequence (P01903 26-254 limits assumed, other chains not shown) above
Sequence (P13762 whole entry G164S): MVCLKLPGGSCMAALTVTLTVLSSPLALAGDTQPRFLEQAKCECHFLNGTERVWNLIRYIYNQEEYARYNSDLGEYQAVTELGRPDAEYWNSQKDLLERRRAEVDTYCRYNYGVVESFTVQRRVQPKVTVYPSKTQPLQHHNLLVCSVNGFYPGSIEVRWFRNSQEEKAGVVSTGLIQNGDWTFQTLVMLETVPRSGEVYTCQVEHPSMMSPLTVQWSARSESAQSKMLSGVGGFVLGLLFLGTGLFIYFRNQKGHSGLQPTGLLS
experimental_details: IC50nM to purified HLA | DRB4 *0101
Where no end group is shown, it is not given here.
For each entry below, report its IC50 value.
Numbers only, in nM.

Some solved cases for reference:
{"columns": ["sequence_string", "scale_unit", "IC50"],
 "data": [
  ["AAAEFVAANTLHAAA [SEQ ID NO: 49]", "nM", 878],
  ["AAAEFVAAWTLKAAA [SEQ ID NO: 45]", "nM", 332],
  ["AAANFVAAWTLHAAA [SEQ ID NO: 51]", "nM", 253],
  ["AAAEFVAAYTLHAAA [SEQ ID NO: 47]", "nM", 448]
]}

Please go through the list and note IC50 for each sequence.
1. AAAHFVAANTLKAEA [SEQ ID NO: 39]
2. AAAEFVAAFTLHAAA [SEQ ID NO: 48]
3. AAADFVAAWTLKAAA [SEQ ID NO: 40]

1. 941
2. 132
3. 1540

---

Kindly supply the reported pIC50 values for the records listed here.
test_target: purified HLA DRB1 *0701 (Homo sapiens, UniProt P01903+P01911, A100R/A102G/A103Q/D57E/D86V/E43K/F76Y/K127E/L162R/M171V/P40G/Q125H/Q99D/R33Q/R42Y/R54Q/S133A/S66F/T210M/V115G/Y107V/Y59L/Y89S)
experimental_details: IC50nM to purified HLA | DRB1 *0701
Experimental: Table printed on a drawing sheet, FIG. 1 Head of the field: IC50nM to purified HLA | DRB1 *0701 First copying reader's note: The comma is the decimal sign and the point a thousands separator (e.g. 21.831); some values are printed bold or italic and some SEQ ID NOs underlined, with no legend on the sheet. Where the first naming reader finds the target: head: IC50nM to purified HLA | DRB1 *0701
Where no end group is shown, it is not given here.
One number for each entry, as −log10 of the molar value.

A selection of reference data follows.
{"columns": ["sequence_string", "pIC50"],
 "data": [
  ["AAAFFVAAWTLHAAA [SEQ ID NO: 12]", 7.22],
  ["AAAWFVAAFTLHAAA [SEQ ID NO: 9]", 7.16],
  ["AAAWFVAANTLHAAA [SEQ ID NO: 10]", 7.37],
  ["AAAHFVAAWTLKAAA [SEQ ID NO: 25]", 6.96],
  ["AAAYFVAANTLHAAA [SEQ ID NO: 24]", 7.31],
  ["AAAFFVAAYTLHAAA [SEQ ID NO: 13]", 7.27]
]}

# input for lookup
Could you tell me which pIC50 is on file for AAAFFVAAYTLKADA [SEQ ID NO: 17] ?
7.35
